test system: L. amazoniensis promastigotes; experiment: Leishmanicidal activity against L. amazoniensis promastigotes (XTT); conditions: L. amazoniensis SI (selectivity index, cytotoxicity/anti-protozoal activity), RAW cell IC50 / L. amazoniensis IC50
Threshold-based label: selectivity ratio at 72 h under 1 gives True, selectivity ratio at 72 h not under 1 gives False.

Completed entries (count: 8):
COc1ccc2c(c1)-c1cc(C=O)ccc1C(C)(C)O2 [5a] : False
COc1ccc2c(c1)-c1cc(COC(=O)c3ccco3)ccc1C(C)(C)O2 [4k] : False
COc1ccc2c(c1)-c1cc(CNCCC(C)C)ccc1C(C)(C)O2 [3h] : True
COc1ccc2c(c1)-c1cc(COC(=O)CC(C)C)ccc1C(C)(C)O2 [4e] : False
COc1ccc2c(c1)-c1cc(CNC(C)C)ccc1C(C)(C)O2 [3f] : True
COCc1ccc2c(c1)-c1cc(OC)ccc1OC2(C)C [3c] : True
COc1ccc2c(c1)-c1cc(CCl)ccc1C(C)(C)O2 [3b] : False
COc1ccc2c(c1)-c1cc(COC(=O)c3ccccc3)ccc1C(C)(C)O2 [4l] : False

stdin: Check if selectivity ratio at 72 h falls below 1 for COc1ccc2c(c1)-c1cc(CNCC(C)C)ccc1C(C)(C)O2 [3g] .
stdout: True

stdin: What do you get for COc1ccc2c(c1)-c1cc(C(C)=O)ccc1C(C)(C)O2 [5b] ?
stdout: True
